assay: Repeat-dose dose-escalation study of controlled release anagrelide: pharmacokinetics; assay type: in vivo, human; details: human, plasma, oral, 0.3 mg, median; cohort 4 (0.3 mg); day 23
Measurement type: Tmax (h)
Write the number in h without appending the unit.

# get_value(readout='Tmax', item= O=C1CN2Cc3c(ccc(Cl)c3Cl)N=C2N1 [anagrelide] )
2

###

assay: Repeat-dose dose-escalation study of controlled release anagrelide: pharmacokinetics; type: in vivo, human; conditions: human, plasma, oral, 0.2 mg, cohort 1 (0.2 mg); day 23
Measurement type: half-life (h)
Expressed in h, but write only the number.

GET /values?readout=half-life&item= O=C1CN2Cc3c(ccc(Cl)c3Cl)N=C2N1 [anagrelide]
34.3

###

assay: Repeat-dose dose-escalation study of controlled release anagrelide: pharmacokinetics; format: in vivo, human; details: human, plasma, oral, 0.3 mg, cohort 4 (0.3 mg); day 23
Measurement type: half-life
Just so you know, I need the unit written after the number.

Look up half-life for this molecule: O=C1CN2Cc3c(ccc(Cl)c3Cl)N=C2N1 [anagrelide]
21.6 h

###

assay: Repeat-dose dose-escalation study of controlled release anagrelide: pharmacokinetics; assay type: in vivo, human; details: human, plasma, oral, 0.2 mg, dose-normalized to 0.2 mg; cohort 1 (0.2 mg); day 1; read-out: AUC0-τ
Measurement type: AUC (ng·h/mL)
Kindly provide the numeric value in ng·h/mL only, without the unit symbol.

Look up AUC: O=C1CN2Cc3c(ccc(Cl)c3Cl)N=C2N1 [anagrelide]
1.75

###

assay: Repeat-dose dose-escalation study of controlled release anagrelide: pharmacokinetics; type: in vivo, human; details: human, plasma, oral, 0.3 mg, dose-normalized to 0.2 mg; cohort 4 (0.3 mg); day 1; read-out: AUC0-τ
Measurement type: AUC (ng·h/mL)
The reply should contain only the number, in ng·h/mL.

Query: AUC; subject: O=C1CN2Cc3c(ccc(Cl)c3Cl)N=C2N1 [anagrelide]
1.63

###

assay: Repeat-dose dose-escalation study of controlled release anagrelide: pharmacokinetics; assay type: in vivo, human; conditions: human, plasma, oral, 0.3 mg, dose-normalized to 0.2 mg; cohort 4 (0.3 mg); day 23; read-out: AUC0-τ
Measurement type: AUC (ng·h/mL)
Lab book: enter the figure in ng·h/mL, no units written.

What does the record list as AUC for O=C1CN2Cc3c(ccc(Cl)c3Cl)N=C2N1 [anagrelide] ?
1.87

###

assay: Repeat-dose dose-escalation study of controlled release anagrelide: pharmacokinetics; type: in vivo, human; settings: human, plasma, oral, 0.4 mg, median; cohort 2 (0.4 mg); day 1
Measurement type: Tmax
Entry format: amount then unit.

What value of Tmax has been recorded for this entry: O=C1CN2Cc3c(ccc(Cl)c3Cl)N=C2N1 [anagrelide]
3.51 h

###

test: Repeat-dose dose-escalation study of controlled release anagrelide: pharmacokinetics; type: in vivo, human; details: human, plasma, oral, 0.4 mg, dose-normalized to 0.2 mg; cohort 2 (0.4 mg); day 23; read-out: AUC0-τ
Measurement type: AUC

If you can, please state the reported AUC value of O=C1CN2Cc3c(ccc(Cl)c3Cl)N=C2N1 [anagrelide] .
2.26 ng·h/mL

###

test: Repeat-dose dose-escalation study of controlled release anagrelide: pharmacokinetics; type: in vivo, human; details: human, plasma, oral, 0.6 mg, cohort 3 (0.6 mg); day 1
Measurement type: half-life (h)
Numeric only. Scale: h

Suppose we examine the compound O=C1CN2Cc3c(ccc(Cl)c3Cl)N=C2N1 [anagrelide] ; what half-life value has been reported?
19.5
